B1: Tudor domain-containing protein 3, residues 554 to 611; numbered along this chain, Q9H7E2 (parent)
chain: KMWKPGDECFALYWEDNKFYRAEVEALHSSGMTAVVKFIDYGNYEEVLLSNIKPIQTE

- Variants of: B1
- assay-comment: abundance fitness (aPCA) (normalised: wild type 0, dead -1); higher = more abundant; growth selection in yeast, the domain comes from the species named
- condition-info: Homo sapiens
quantity: abundance fitness

In the examples that follow, each entry is paired with its recorded abundance fitness.
Y41I 0.076
E45C -0.262
E25P -0.659

Entry S50W , abundance fitness reported as -0.585

Entry S30Q , abundance fitness reported as -0.254

Entry T57C , abundance fitness reported as -0.005

Entry E58G , abundance fitness reported as -0.042

Entry E8L , abundance fitness reported as -0.016

Entry A22R , abundance fitness reported as -0.756

Entry P5E , abundance fitness reported as -0.187

Entry P54A , abundance fitness reported as -0.162

Entry C9T , abundance fitness reported as -1.04

Entry E58F , abundance fitness reported as -0.314

Entry Y20T , abundance fitness reported as -0.871
